- Experimental target: Pulmonary Myofibroblast
- Experiment description: FACS antibody binding to pulmonary myofibroblasts (HPF/MF)
- Parameters: species or system human
- Particulars: Table 11, 1994-01-C7 variants, FIG. 4B
- Procedure: Human Pulmonary Fibroblasts (ScienCell) were cultured in complete Fibroblast Growth Medium (ScienCell) until 80% confluent in T-150 flasks. Cells were washed and harvested using Accutase. Cells were seeded into T-150 flasks at 7,500 cells/cm^2 in complete FGF and cultured for 72 hours. Cells were then washed and starved in serum reduced medium for 24 hours. […] Data were analyzed by gating on single cells and determining the geometric Mean Fluorescence Intensity (gMFI) in the PE channel for each sample.
Field: EC50. Provide a value for each of the molecules that follow.
The reply should contain only the number, in nM.

Challenge: Need EC50 of Antibody 60: 1994-01-C7 variant; VH SEQ ID NO: 33, VL SEQ ID NO: 37 (antibody, V domains shown) VH: QVQLVQSGAEVKKPGASVKVSCKASGYTFTSYGISWVRQAPGQGLEWMGWISAYNSNTNYAQKLQGRVTMTTDTSTSTAYMELRSLRSDDTAAYYCARVTGITGTTIGPWGQGTMVTVSS VL: DIQMTQSPSSLSASVGDRVTITCRASQSISSYLNWYQQKPGKAPKLLIYDASSLESGVPSRFSGSGSGTEFTLTISSLQPDDFAVYYCQQYNNWPQTFGQGTKVEIK , thanks.
Response given: 4.6

Challenge: Field request: EC50 | item: Antibody 54: 1994-01-C7 variant; VH SEQ ID NO: 30, VL SEQ ID NO: 37 (antibody, V domains shown) VH: QVQLVQSGAEVKKPGASVKVSCKASGYTFTSYGISWVRQAPGQGLEWMGWISAYNANTNYAQKLQGRVTMTTDTSTSTAYMELRSLRSDDTAAYYCARVTGITGTTIGPWGQGTMVTVSS VL: DIQMTQSPSSLSASVGDRVTITCRASQSISSYLNWYQQKPGKAPKLLIYDASSLESGVPSRFSGSGSGTEFTLTISSLQPDDFAVYYCQQYNNWPQTFGQGTKVEIK
Response given: 2.4

Challenge: Consider the molecule shown here: 1994-01-C7 (#9): anti-α11β1 monoclonal antibody from human phage display; VH SEQ ID NO: 32, VL SEQ ID NO: 37 (antibody, V domains shown) VH: QVQLVQSGAEVKKPGASVKVSCKASGYTFTSYGISWVRQAPGQGLEWMGWISAYNGNTNYAQKLQGRVTMTTDTSTSTAYMELRSLRSDDTAAYYCARVTGITGTTIDPWGQGTMVTVSS VL: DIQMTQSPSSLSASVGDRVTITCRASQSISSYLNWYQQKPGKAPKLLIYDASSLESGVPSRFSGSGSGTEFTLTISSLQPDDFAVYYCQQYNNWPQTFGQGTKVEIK What is its recorded EC50?
Response given: 3.6
